target: CDK1 (cyclin B) (Homo sapiens); construct: purchased Invitrogen Life Technologies (assay service); test: Z'-LYTE kinase assay; assay type: biochemical; conditions: read-out: CDK1/B IC50
Sequence (P06493 whole entry): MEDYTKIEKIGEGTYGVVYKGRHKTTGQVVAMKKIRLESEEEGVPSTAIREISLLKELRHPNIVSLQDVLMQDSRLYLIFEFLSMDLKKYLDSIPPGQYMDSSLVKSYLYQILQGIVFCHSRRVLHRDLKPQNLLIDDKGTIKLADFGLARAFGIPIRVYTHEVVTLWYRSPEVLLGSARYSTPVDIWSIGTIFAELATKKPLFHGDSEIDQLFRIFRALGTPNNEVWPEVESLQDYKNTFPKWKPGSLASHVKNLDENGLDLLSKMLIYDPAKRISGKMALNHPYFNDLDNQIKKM
Sequence (P14635 whole entry partner): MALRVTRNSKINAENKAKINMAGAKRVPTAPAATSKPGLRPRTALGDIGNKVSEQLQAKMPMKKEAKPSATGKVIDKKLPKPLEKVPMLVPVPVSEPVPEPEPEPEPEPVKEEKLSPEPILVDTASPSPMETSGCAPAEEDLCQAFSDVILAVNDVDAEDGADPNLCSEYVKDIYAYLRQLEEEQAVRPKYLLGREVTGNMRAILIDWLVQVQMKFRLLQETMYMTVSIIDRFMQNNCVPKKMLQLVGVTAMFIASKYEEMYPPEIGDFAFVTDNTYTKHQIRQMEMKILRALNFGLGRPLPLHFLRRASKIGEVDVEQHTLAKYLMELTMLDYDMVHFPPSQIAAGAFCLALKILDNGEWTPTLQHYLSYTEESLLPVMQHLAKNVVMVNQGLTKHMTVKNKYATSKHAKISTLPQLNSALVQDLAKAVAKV

Molecule: N#Cc1cc2cnc(Nc3ccc(N4CCNCC4)cc3)cc2n(C2CCCC2)c1=O [Compound No. 88]
Result units: nM
Relation sign: >
IC50: 5000

Molecule: CS(=O)(=O)N1CCC(Nc2cc3c(cn2)cc(C#N)c(=O)n3C2CCCC2)CC1 [Compound No. 303]
Result units: nM
Relation sign: =
IC50: 97

Molecule: CN1CCC(c2ccc(Nc3cc4c(cn3)cc(C#N)c(=O)n4C3CCCC3)cc2)CC1 [Compound No. 89]
Result units: nM
Relation sign: >
IC50: 5000

Molecule: CS(=O)(=O)N1CCC[C@@H](Nc2ncc3cc(C#N)c(=O)n(C4CCCC4)c3n2)C1 [Compound No. 365]
Result units: nM
Relation sign: >
IC50: 5000

Molecule: CS(=O)(=O)N1CCC[C@H](Nc2ncc3cc(C#N)c(=O)n(C4CCCC4)c3n2)C1 [Compound No. 364]
Result units: nM
Relation sign: >
IC50: 5000

Molecule: N#Cc1cc2cnc(Nc3ccc4c(c3)CCNC4)nc2n(C2CC3CC3C2)c1=O (centres unmarked) [Compound No. 342]
Result units: nM
Relation sign: =
IC50: 439

Molecule: N#Cc1cc2cnc(Nc3ccc4c(c3)CCNC4)nc2n(C23CC(C2)C3)c1=O [Compound No. 370]
Result units: nM
Relation sign: =
IC50: 2730

Molecule: N#Cc1cc2cnc(Nc3ccc4c(c3)CCN(C(=O)CO)C4)nc2n(C2CCCC2)c1=O [Compound No. 70]
Result units: nM
Relation sign: =
IC50: 354

Molecule: CS(=O)(=O)N1CCC(Nc2ncc3cc(C#N)c(=O)n(C4COCC4O)c3n2)CC1 (centres unmarked) [Compound No. 350]
Result units: nM
Relation sign: =
IC50: 2270

Molecule: N#Cc1cc2cnc(Nc3ccc4c(c3)CCNC4)nc2n(C2CCCC2O)c1=O (centres unmarked) [Compound No. 346]
Result units: nM
Relation sign: >
IC50: 5000

Molecule: N#Cc1cc2cnc(Nc3ccc4c(c3)CCNC4)nc2n([C@H]2C[C@@H]3CC[C@H]2C3)c1=O (relative stereo) [Compound No. 354]
Result units: nM
Relation sign: =
IC50: 534

* * *

biological target: CDK6 (Homo sapiens, UniProt Q00534); experiment: In vitro kinase inhibition IC50, luminescence (ADP Glo), retinoblastoma substrate; conditions: read-out: CDK6/D1 IC50
Sequence (Q00534 whole entry): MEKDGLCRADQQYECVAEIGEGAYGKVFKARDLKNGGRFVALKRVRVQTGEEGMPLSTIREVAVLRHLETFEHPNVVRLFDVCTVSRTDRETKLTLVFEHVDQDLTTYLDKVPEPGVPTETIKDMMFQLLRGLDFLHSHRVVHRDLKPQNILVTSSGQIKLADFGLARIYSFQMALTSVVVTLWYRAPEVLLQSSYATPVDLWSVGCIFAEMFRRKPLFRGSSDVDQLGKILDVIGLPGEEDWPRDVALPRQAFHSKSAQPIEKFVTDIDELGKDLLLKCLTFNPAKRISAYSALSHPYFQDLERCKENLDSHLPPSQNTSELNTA
Sequence (P24385 whole entry partner): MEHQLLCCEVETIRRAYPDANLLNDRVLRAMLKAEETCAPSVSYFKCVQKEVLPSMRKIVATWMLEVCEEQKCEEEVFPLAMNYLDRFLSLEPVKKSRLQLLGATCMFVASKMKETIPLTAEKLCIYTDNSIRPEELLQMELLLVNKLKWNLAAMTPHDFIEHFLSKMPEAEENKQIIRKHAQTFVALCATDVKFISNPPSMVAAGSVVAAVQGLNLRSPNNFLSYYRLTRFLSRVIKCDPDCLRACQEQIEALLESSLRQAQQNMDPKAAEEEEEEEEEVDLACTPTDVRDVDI
pIC50: −log10 of the molar value.
Value kind: pIC50

Compound: N#Cc1cc2cnc(NC3CCN(S(=O)(=O)CC(F)(F)F)CC3)nc2n(C2CCCC2)c1=O
Test system: CDK6 (Homo sapiens, UniProt Q00534)
Value kind: pIC50
Relation sign: =
Endpoint value: 8.18

Compound: N#Cc1cc2cnc(Nc3ccc(N4CCN5CCCC5C4)c(F)c3)nc2n(C2CCCC2)c1=O (stereo not shown)
Test system: CDK6 (Homo sapiens, UniProt Q00534)
Value kind: pIC50
Relation sign: =
Endpoint value: 7.80

Compound: CN(C)CCN1CCc2ccc(Nc3ncc4cc(C#N)c(=O)n(C5CCCC5)c4n3)cc2C1=O
Test system: CDK6 (Homo sapiens, UniProt Q00534)
Value kind: pIC50
Relation sign: <
Endpoint value: 6.70

Compound: N#Cc1cc2cnc(Nc3ccc(N4CCNCC4=O)c(F)c3)nc2n(C2CCCC2)c1=O
Test system: CDK6 (Homo sapiens, UniProt Q00534)
Value kind: pIC50
Relation sign: =
Endpoint value: 7.92

Compound: CN(C)CCCN1CCc2cc(Nc3ncc4cc(C#N)c(=O)n(C5CCCC5)c4n3)ccc2C1
Test system: CDK6 (Homo sapiens, UniProt Q00534)
Value kind: pIC50
Relation sign: =
Endpoint value: 9.00

Compound: CC1(C)CCCC1n1c(=O)c(C#N)cc2cnc(NC3CCN(S(C)(=O)=O)CC3)nc21 (stereo not shown)
Test system: CDK6 (Homo sapiens, UniProt Q00534)
Value kind: pIC50
Relation sign: =
Endpoint value: 8.05

Compound: N#Cc1cc2cnc(Nc3nc(C4CCNCC4)cs3)nc2n(C2CCCC2)c1=O
Test system: CDK6 (Homo sapiens, UniProt Q00534)
Value kind: pIC50
Relation sign: =
Endpoint value: 8.05

Compound: N#Cc1cc2cnc(Nc3ccc4c(c3)CCNC4)nc2n(C2CC3CC3C2)c1=O (stereo not shown)
Test system: CDK6 (Homo sapiens, UniProt Q00534)
Value kind: pIC50
Relation sign: =
Endpoint value: 7.66

Compound: CN1CCC(c2ccc(Nc3ncc4cc(C#N)c(=O)n(C5CCCC5)c4n3)cc2)CC1
Test system: CDK6 (Homo sapiens, UniProt Q00534)
Value kind: pIC50
Relation sign: =
Endpoint value: 7.12

Compound: N#Cc1cc2cnc(Nc3ccc4c(c3)CCN(CCN)C4)nc2n(C2CCCC2)c1=O
Test system: CDK6 (Homo sapiens, UniProt Q00534)
Value kind: pIC50
Relation sign: =
Endpoint value: 8.22

Compound: N#Cc1cc2cnc(NC3CCN(S(=O)(=O)CCCCCCO)CC3)nc2n(C2CCCC2)c1=O
Test system: CDK6 (Homo sapiens, UniProt Q00534)
Value kind: pIC50
Relation sign: =
Endpoint value: 8.30

Compound: CN1CCC(c2ccc(Nc3ncc4cc(C#N)c(=O)n(C5CCCC5)c4n3)cc2F)CC1
Test system: CDK6 (Homo sapiens, UniProt Q00534)
Value kind: pIC50
Relation sign: =
Endpoint value: 8.30

Compound: N#Cc1cc2cnc(Nc3ccc4c(c3)NC(=O)C4)nc2n(C2CCCC2)c1=O
Test system: CDK6 (Homo sapiens, UniProt Q00534)
Value kind: pIC50
Relation sign: =
Endpoint value: 7.42

Compound: N#Cc1cc2cnc(Nc3cccc(S(N)(=O)=O)c3)nc2n(C2CCCC2)c1=O
Test system: CDK6 (Homo sapiens, UniProt Q00534)
Value kind: pIC50
Relation sign: =
Endpoint value: 7.85

Compound: Cc1ccc(S(=O)(=O)N2CCC(Nc3ncc4cc(C#N)c(=O)n(C5CCCC5)c4n3)CC2)cc1
Test system: CDK6 (Homo sapiens, UniProt Q00534)
Value kind: pIC50
Relation sign: =
Endpoint value: 7.89

Compound: CN(C)CC1Cc2ccc(Nc3ncc4cc(C#N)c(=O)n(C5CCCC5)c4n3)cc2C(=O)N1 (stereo not shown)
Test system: CDK6 (Homo sapiens, UniProt Q00534)
Value kind: pIC50
Relation sign: =
Endpoint value: 7.19

Data credit: patent US20220273659A1
